- Tested on: COLO 205 colon
- Run description: NCI tumour cell line growth inhibition, 48 h; in the data active means GI50 below about 0.43 µM; inactive means the rest
Classes to choose from: active, inactive

Look over these answered cases.
Molecule: C=C1CO[C@@H]2C[C@@H]1CCC1(C)OC1CC/C(C)=C/CC[C@@]2(C)O (some centres not stated)
Class name: inactive

Molecule: COc1ccc2c(c1)C(=O)c1c-2n(CCCCl)c(=O)c2cc(N(C)C)ccc12
Class name: inactive

Molecule: COc1ccc(-c2nn(-c3cccc(NC(=O)Nc4cccc(C(F)(F)F)c4)c3)cc2-c2ccncc2)cc1Cl
Class name: inactive

Molecule: CN1CCN(c2cc(Nc3cc(C4CC4)[nH]n3)nc(Nc3ccc(CC(=O)NCc4cccc(F)c4)cc3)n2)CC1
Class name: active

Molecule: C#CC#CC#CC#CC#CC#CC#CC#CCC1OC[C@H](COC(=O)O[C@@H](C(=O)O[C@H]2C[C@@]3(O)[C@@H](OC(=O)c4ccccc4)[C@@H]4[C@]5(OC(C)=O)CO[C@@H]5C[C@H](O)[C@@]4(C)C(=O)[C@H](OC(C)=O)C(=C2C)C3(C)C)[C@@H](NC(=O)c2ccccc2)c2ccccc2)O1 (some centres not stated)
Class name: active

q: Which outcome was assigned to CCOC(=O)c1cnc2c(cnn2CC)c1NN=C(C)C in this test?
a: inactive

q: Recorded test call requested for CC12CCC(O)CC1CCC1C2CCC2(C)C(C3=CC(=O)OC3)CCC12 (configuration not stated)
a: inactive

###

- Test system: NCI-H226 lung
- Run description: NCI tumour cell line growth inhibition, 48 h; in the data active = GI50 below about 0.43 µM; inactive = the rest
Please answer using one outcome listed in active, inactive

Worked examples, 10 compounds total:
Compound: COc1cc(/C=C/C(=O)c2cc(OC)c(OC)c(OC)c2)cc(OC)c1OC
Class name: inactive
--
Compound: Cc1ccc(-n2c(-c3ccc(Cl)cc3)cs/c2=N\NC(=O)COc2n[nH]c(=O)c3ccccc23)cc1
Class name: inactive
--
Compound: c1ccc2c(c1)ccc1c3ccccc3ccc21
Class name: inactive
--
Compound: Oc1ccc(-c2nc3ccc4[nH]ncc4c3c3c2CCCC3)c2cccnc12
Class name: inactive
--
Compound: COC(=O)[C@]12CC[C@@H](C)[C@H](C)[C@@H]1C1=CC[C@@H]3[C@@]4(C)C=C(O)C(=O)C(C)=C4CC[C@@]3(C)[C@]1(C)CC2
Class name: inactive
--
Compound: C#CC#CC#CC#CC#CC#CC#CC#CCC1OC[C@H](COC(=O)O[C@@H](C(=O)O[C@H]2C[C@@]3(O)[C@@H](OC(=O)c4ccccc4)[C@@H]4[C@]5(OC(C)=O)CO[C@@H]5C[C@H](O)[C@@]4(C)C(=O)[C@H](OC(C)=O)C(=C2C)C3(C)C)[C@@H](NC(=O)c2ccccc2)c2ccccc2)O1 (some centres not stated)
Class name: inactive
--
Compound: NCC(=O)CCC(=O)O
Class name: inactive
--
Compound: COc1cccc(C2C(C#N)=C(N)Oc3cc(OC)ccc32)c1 (configuration not stated)
Class name: inactive
--
Compound: O=C(Nc1ccccc1F)c1ccc(NC2=C(Cl)C(=O)N(Cc3ccccc3)C2=O)cc1
Class name: inactive
--
Compound: O=C1C(=O)c2c(nc3ncccn23)-c2ccccc21
Class name: inactive

q: # outcome recorded in this test, key = CN(C)CCCC(=O)Nc1ccc(Cn2nnc3c2C(=O)c2nnn(Cc4ccc(NC(=O)CCCN(C)C)cc4)c2C3=O)cc1
a: inactive

q: Answer briefly: the call reported for COc1ccc(-c2c(C#N)c(N)nc3c2CCCc2ccc(F)cc2-3)cc1OC in this assay.
a: active

q: Per the records of this test, what outcome belongs to Cc1ccccc1NC(=O)c1sc2nc3c(cc2c1N)C(=O)CCC3 ?
a: inactive

q: Entry COC1CCC(n2c([C@@H]3CCCC(=O)N3c3ccc(F)c(F)c3)nc3cc(-c4c(C)noc4C)ccc32)CC1 (some centres not stated) : call = ?
a: inactive

q: Each compound tested received a call. Report the one for CCCCC#Cc1cccc(=O)o1 .
a: inactive

q: Dear colleague, could you share the recorded outcome for C[C@@]12CCC[C@@](C)(C(=O)O)C1CC[C@@]13CC(=O)[C@@](CO)(CCC12)C3 (some centres not stated) when you have a moment?
a: inactive

q: Recorded test call requested for COc1ccc(/C=C/C(c2cc(OC)c(OC)c(OC)c2)n2cncn2)cc1O (configuration not stated)
a: inactive
